- System: M14 melanoma
- protocol_notes: NCI-60 one-dose screen, 48 h
- conditions_used: 10 µM unless noted
This is part of a sample that, as a whole, favours compounds with a hit. Of some 83,000 tested, about 20% had one in any assay. Calls of active or inactive are those of the source. Rule for the calls: active = growth percent below 10; inactive = the rest.
Write down the outcome that applies. Available outcomes: active, inactive

The following compounds have reported results that may help.
| compound | class_assignment |
| --- | --- |
| CC1=C(SCCC(=O)OC(C[Se]C2=C(C)C(=O)c3ccccc3C2=O)C(=O)NCCCCCC(=O)OCc2ccccc2)C(=O)c2ccccc2C1=O (stereo not drawn) | active |
| O=c1c2c3c(sc2n2c(-c4cc(-c5ccccc5)nn4-c4ccccc4)nnc2n1Cc1ccccc1)CCCC3 | inactive |

Tell me the assay call for `O=[N+]([O-])c1ccc(N2c3ccncc3Sc3ccncc32)cc1` please.
inactive
